tested on: HL-60(TB); assay: Growth inhibition of human HL-60(TB) cells assessed as cell growth at 10 uM incubated for 48 hrs by sulforhodamine B assay relative to control; assay type: functional; settings: read-out: Activity
Record form. Attribute: growth at 10 µM. Fill in for each entry.
Answer shape: numeric part, then the unit.

Please review the following examples before continuing.
STRUCTURE_STRING | QUANTITY_MEASURED | RESULT
CC1(C)CCc2cc(-c3ccn(S(=O)(=O)c4ccc(Cl)cc4Cl)n3)ccc2O1 | growth at 10 µM | 102%
Cc1cccc(NC(=O)c2sc3nc4c(cc3c2N)CN(Cc2ccccc2)CC4)c1 | growth at 10 µM | 108%
O=S(=O)(c1ccc(Br)cc1)n1ccc(-c2ccc(OCCCF)cc2)n1 | growth at 10 µM | 95.7%
Cc1ccc(S(=O)(=O)n2ccc(-c3ccc(OCCCF)cc3)n2)cc1 | growth at 10 µM | 107%
COc1ccc(-c2ccn(S(=O)(=O)c3ccc(OC)cc3)n2)cc1 | growth at 10 µM | 99.4%

Please give growth at 10 µM, item by item, for the list that follows.
1. CCOc1ccc(-c2cc(N)n(S(=O)(=O)c3ccc(OC)cc3)n2)cc1
2. CC(=O)c1ccc2c(N)c(C(=O)Nc3ccccc3)sc2n1
3. CCc1ccccc1NC(=O)c1sc2nc3c(cc2c1N)C(=O)CCC3
4. CN1CCc2nc3sc(C(N)=O)c(N)c3c(-c3cccs3)c2C1

1: 126%; 2: 108%; 3: -10.3%; 4: -18%
